- Assay method text: Human HepG2 cell viability assay in 384 well format
- Type: toxicity, cell-based
- Set-up: dose 125 nL, time 70.5 hour; concentration not given beside the values
- Experimental parameters: HepG2 cells, read-out: Inhibition
Field: cytotoxicity at 70.5 h. Provide a value for each of the molecules that follow.
Answer in %, number only, no unit symbol.

Query :: Fill in cytotoxicity at 70.5 h for record CNC(=O)[C@@H]1[C@H]2CN(Cc3ccccn3)CCN2C[C@H]1c1ccccc1
Result :: 4.19

Query :: Provide cytotoxicity at 70.5 h value for the following molecule: CC(C)N1CCO[C@H]2CN(S(=O)(=O)c3ccc(C#N)cc3)C[C@H]21
Result :: -11.6

Query :: For CCN1C[C@H]2CCN(C(=O)Nc3ccccc3C)CC[C@H]2S1(=O)=O , write its cytotoxicity at 70.5 h.
Result :: 15.6

Query :: State its cytotoxicity at 70.5 h: Cc1c(C(=O)N(C)CC(F)(F)F)nnn1-c1ccc(F)cc1
Result :: 0.0353

Query :: Please look at this molecule and report its cytotoxicity at 70.5 h: CC1CCCCN1Cc1nc(C2CC2)no1 (stereo unspecified)
Result :: -4.41

Query :: Identify measured cytotoxicity at 70.5 h associated with Cc1cc(C)c2ncn(CCC(C)O)c(=O)c2c1 (stereo unspecified)
Result :: -5.19

Query :: Provide cytotoxicity at 70.5 h value for the following molecule: O=C(Cn1cnnn1)NCC1(O)CCCc2ccccc21 (stereo unspecified)
Result :: -6.92

Query :: In one line, give reported cytotoxicity at 70.5 h of the entry COC(=O)N1CCC(Nc2cccc(F)c2C(C)=O)CC1 .
Result :: -10.1

Query :: Return reported cytotoxicity at 70.5 h. Input molecule: CN(Cc1csc(-c2cccs2)n1)C(=O)CN1CCOC1=O
Result :: -3.58

Query :: State its cytotoxicity at 70.5 h: CC(C)n1[nH]c(=O)c2c1NC(=O)CC2c1cccc(OC(F)F)c1 (stereo unspecified)
Result :: 6.29

Query :: Determine from records and report cytotoxicity at 70.5 h for Cc1cc(Br)ccc1C(=O)NCCN1CCCCCC1
Result :: -10.6

---

- Assay method text: Human HepG2 cell viability assay in 384 well format
- Type: toxicity, cell-based
- Set-up: dose 125 nL, time 70.5 hour; concentration not given beside the values
- Experimental parameters: HepG2 cells, read-out: Inhibition
Parameter measured: cytotoxicity at 70.5 h (%)
Expressed in %, but write only the number.

Query :: Dear colleague, please send me the reported cytotoxicity at 70.5 h for CS(=O)(=O)NC1CCCN(C(=O)NCc2cc[nH]n2)C1 (stereo not drawn) when you can.
Result :: 10.8

Query :: Specify reported cytotoxicity at 70.5 h for the compound shown: NC(=O)c1cccc(CC2CCN(C(=O)CCc3cccc(F)c3)C2)c1 (stereo not drawn)
Result :: -8.51

Query :: Give the reported value of cytotoxicity at 70.5 h for this record: CN1CCOC[C@H]1c1nc(-c2cccnc2)c[nH]1
Result :: -7.84

Query :: Return reported cytotoxicity at 70.5 h. Input compound: Cc1csc(C(Cc2cccs2)NCc2cc3c(cc2C)OCO3)n1 (stereo not drawn)
Result :: 17.6

Query :: Using the record for O=C(NCC(F)(F)F)c1ccc(-c2ccco2)[nH]c1=O , state its measured cytotoxicity at 70.5 h.
Result :: -4.71

Query :: State its cytotoxicity at 70.5 h: Cc1oc(-c2ccco2)nc1CC(=O)N1CCC(CCO)C1 (stereo not drawn)
Result :: -11

Query :: Given the compound Cc1cccc(NC(=O)[C@@H]2CCCN2CC(=O)Nc2ccccc2)n1 , write its reported cytotoxicity at 70.5 h.
Result :: -6.38

Query :: Please give measured cytotoxicity at 70.5 h of the following entry: CCN(CC)C(=O)c1ccc(NC(=O)CNc2ccc(Br)cc2F)cc1
Result :: 4.87

Query :: Using known records, supply cytotoxicity at 70.5 h for COCCN1CCN(C(C)c2nc(C3CC3)no2)CC1 (stereo not drawn)
Result :: 17

Query :: Supply cytotoxicity at 70.5 h value. Item: CC(C(=O)Nc1nccs1)N1CCc2nn(C)c(=O)cc2C1 (stereo not drawn)
Result :: 20.7

Query :: Quick one: give measured cytotoxicity at 70.5 h for CC1(c2ncc(CN3CCN(c4ccccn4)CC3)cn2)CCCCO1 (stereo not drawn)
Result :: -1.83

Query :: Using known records, supply cytotoxicity at 70.5 h for CCOC(=O)N1CCC(NC(C)c2ccccc2-n2cccn2)CC1 (stereo not drawn)
Result :: 35.4

Query :: Could you please provide reported cytotoxicity at 70.5 h for CC(C)c1nc(CCn2cncn2)n(-c2ccc3c(c2)OCCO3)n1 ? Thanks!
Result :: -12.6

Query :: Let me know recorded cytotoxicity at 70.5 h for CCc1ncc(C(=O)c2ccc(OC)cc2)n1C , thanks.
Result :: 17.9

Query :: Could you please provide reported cytotoxicity at 70.5 h for CCc1sc(-c2nnc(CNC(C)Cn3cc(C)cn3)o2)cc1C (stereo not drawn) ? Thanks!
Result :: 5.1

Query :: # return recorded cytotoxicity at 70.5 h for entry Cn1ccc(CN2CCCC23CCN(Cc2cccc(F)c2)CC3)n1
Result :: 0.351

Query :: Specify cytotoxicity at 70.5 h for CC(C)CN(Cc1ccccn1)Cc1ccccc1OCC(=O)O and stop.
Result :: -9.42

Query :: Give cytotoxicity at 70.5 h for the following compound: Cc1ccc(C(=O)NC2CCN(Cc3nc(CC(C)C)no3)CC2)s1
Result :: 1.36

Query :: Supply recorded cytotoxicity at 70.5 h for Cc1nc2c(C(=O)N[C@H]3C[C@H]4CN(C)CCN4C3)cccc2[nH]1 here.
Result :: -10.2

Query :: Given the compound Cc1ncsc1CN1C[C@@H](OCc2ccccn2)[C@H]2OCCC[C@H]21 , write its reported cytotoxicity at 70.5 h.
Result :: 7.35

Query :: Name the recorded cytotoxicity at 70.5 h of the item CCOc1ccnc(N2CCN(C(=O)c3cccnc3O)CC2)n1 in your answer.
Result :: 1.67

Query :: Answer with the recorded cytotoxicity at 70.5 h of CC1=CC[C@@H]2CN(C(=O)c3ccc(-c4nnn(C)n4)cc3)C[C@@H]2C1 only.
Result :: 6

Query :: Please supply the value of reported cytotoxicity at 70.5 h for the item Cc1nnc([C@@H]2C[C@H]3CN(C(=O)C4CC4)C[C@H]3O2)[nH]1
Result :: -5.22

---

- Assay method text: Human HepG2 cell viability assay in 384 well format
- Type: toxicity, cell-based
- Parameters: dose 125 nL, time 70.5 hour; concentration not given beside the values
- Experimental parameters: HepG2 cells, read-out: Inhibition
Parameter measured: cytotoxicity at 70.5 h (%)
Please give a number only; it is taken to be in %.

Query :: Note cytotoxicity at 70.5 h for the compound shown: CCc1noc(C(C)N(C)Cc2ccc(OC)c(OC)c2)n1 (stereo unspecified)
Result :: 1.83

Query :: Hello, please tell me recorded cytotoxicity at 70.5 h for this one: O=C(NS(=O)(=O)Cc1ccc(F)cc1)C1CCOc2ccccc21 (stereo unspecified)
Result :: -9.19

Query :: # return recorded cytotoxicity at 70.5 h for input O=C(Nc1ccccc1N1CCOC1=O)N1CCc2sccc2C1
Result :: -8.21

Query :: Give the measured cytotoxicity at 70.5 h for Cc1nc(NC2CCN(C(=O)C3CC3)CC2)c2cnn(C)c2n1
Result :: -11.5

Query :: Give cytotoxicity at 70.5 h for the following compound: O=C(CNCC1(O)CCCN(Cc2cccc(F)c2F)C1=O)NC1CC1 (stereo unspecified)
Result :: -1.7

Query :: Please report cytotoxicity at 70.5 h for the following compound: COc1cccc(Cn2cc(C3=CCN(CCO)CC3)cn2)c1
Result :: -11

Query :: Give the reported value of cytotoxicity at 70.5 h for this record: CCn1cc(C(=O)N2C[C@H]3C[C@H](Oc4ccccc4)C[C@H]3C2)cn1
Result :: -0.374

Query :: Answer with the recorded cytotoxicity at 70.5 h of Cc1ccc(C(O)CNC(=O)NCc2csc(C)n2)cc1 (stereo unspecified) only.
Result :: -2.4

Query :: Provide only the value of recorded cytotoxicity at 70.5 h for Cc1cscc1C(=O)N1CCCC1CC(=O)c1cnn(C)c1 (stereo unspecified)
Result :: -5.58

Query :: Indicate the recorded cytotoxicity at 70.5 h value for this compound: CCNCc1ccc(OCc2ccc3c(c2)OCCO3)cc1
Result :: 22.5

Query :: For the compound c1cncc(CO[C@H]2CO[C@@]3(CCN(Cc4ccoc4)C3)C2)c1 , report cytotoxicity at 70.5 h.
Result :: -20.1

---

- Assay method text: Human HepG2 cell viability assay in 384 well format
- Format: toxicity, cell-based
- Design: dose 125 nL, time 70.5 hour; concentration not given beside the values
- Experimental parameters: HepG2 cells, read-out: Inhibition
Parameter measured: cytotoxicity at 70.5 h (%)
# value in %; strip the unit string

Query :: Report measured cytotoxicity at 70.5 h; entry is Cc1ccc2nc(CNc3ccccc3C(=O)NC3CC3)cn2c1
Result :: -4.35

Query :: Give recorded cytotoxicity at 70.5 h. Cc1cc(C(=O)NCc2ccnc(N3CCN(C)CC3)c2)sc1C
Result :: 20.5

Query :: Supply cytotoxicity at 70.5 h value. Item: COc1ccc(CC(=O)NC2(C)CCS(=O)(=O)C2)cc1F (stereo not drawn)
Result :: 0.396

Query :: For the compound COCc1cccc(C(=O)N2CCCCC2c2nccs2)c1 (stereo not drawn) , report cytotoxicity at 70.5 h.
Result :: -8.81

Query :: Input Cc1ccc(C)c(CC(=O)Nc2cccc(C(=O)N(C)C)n2)c1 , output reported cytotoxicity at 70.5 h.
Result :: 5.58

Query :: Please give the documented cytotoxicity at 70.5 h of CNC(=O)c1nc2c(s1)CCN(C(=O)Cc1ccc(OC)cc1)CC2
Result :: 20.5

Query :: Query cytotoxicity at 70.5 h for CO[C@@]1(C)C[C@@H](O)C12CCN(C(=O)c1ccccc1C(C)=O)CC2
Result :: -7.26

Query :: For the compound COc1cc(N2CC[C@H]3O[C@@H](C(=O)NC4CCCC4)CC[C@H]32)ncn1 , give its reported cytotoxicity at 70.5 h.
Result :: -9.02

Query :: // Input: O=S(=O)(c1cccc(Cl)c1)N1CCCC(Cn2cncn2)C1 (stereo not drawn) . Output its cytotoxicity at 70.5 h only.
Result :: -4.36

Query :: Please list cytotoxicity at 70.5 h recorded for the compound CC(C)c1ccc(O)c(C(=O)N2CCN(Cc3cscn3)CC2)c1
Result :: -15.1

Query :: Entry O=C(Nc1ccccc1)[C@H]1C[C@@H]2CN(Cc3cccnc3)C[C@H]1O2 needs its cytotoxicity at 70.5 h filled in; supply it.
Result :: -5.98

Query :: Return cytotoxicity at 70.5 h for the following compound: COc1cc(N2CCCn3cnc(COC(C)C)c3C2)ncn1
Result :: 13.3

Query :: State its cytotoxicity at 70.5 h: OCCN1CCN(Cc2coc(-c3ccccc3Cl)n2)CC1
Result :: -19.7

Query :: Let me know recorded cytotoxicity at 70.5 h for CS(=O)(=O)N[C@H]1CCO[C@]2(CCN(C(=O)c3ccccn3)C2)C1 , thanks.
Result :: -3.91

Query :: Tell me measured cytotoxicity at 70.5 h for Cc1noc(C)c1CCC(=O)N(C)C(C)c1cccs1 (stereo not drawn) please.
Result :: -11.3

Query :: Consider the compound Cc1ccc2c(C)c(C(=O)NCc3csc(N)n3)oc2c1 . State its measured cytotoxicity at 70.5 h.
Result :: -13

Query :: For Fc1cnc(N2CC[C@@H]3O[C@@H](COCc4cccnc4)CC[C@@H]32)nc1 , write its cytotoxicity at 70.5 h.
Result :: -6.15

Query :: Give me measured cytotoxicity at 70.5 h, please, for this compound: CN(Cc1nnc(-c2ccco2)o1)CC1CCCN1c1cccnn1 (stereo not drawn)
Result :: 5.51

Query :: Quickly give me recorded cytotoxicity at 70.5 h for O=C([C@@H]1C[C@@H]2CCN(C3CCOCC3)C[C@H]2O1)N1CCCC1
Result :: -4.52

Query :: Give the measured cytotoxicity at 70.5 h for COc1cc(N2CCCn3cnc(COCCO)c3C2)ncn1
Result :: 0.488

Query :: Quote cytotoxicity at 70.5 h reported for O=C(CN1CC(n2cccn2)C1)NCC1(c2ccccc2)CCC1 please.
Result :: 13.6

Query :: Specify cytotoxicity at 70.5 h for CC(C)n1cnnc1CN(C)Cc1ccoc1 and stop.
Result :: -2.84

Query :: Read the entry COc1ncccc1NC(=O)NCC1CCS(=O)(=O)C1 (stereo not drawn) and write its reported cytotoxicity at 70.5 h.
Result :: -18.6

All values here come from ChEMBL document CHEMBL3507680.
